Could you please report measured pKi for the items listed next?
# system_name: Carbonic anhydrase 9 (Homo sapiens, UniProt Q16790)
# assay_protocol: Inhibition of human CA9 preincubated for 15 mins by phenol red dye based stopped flow CO2 hydration assay
To interpret pKi, take it as minus log10 of a concentration measured in moles per litre.

Which pKi value belongs to Cc1ccc(-c2nc(SCC(=O)c3ccc(Br)cc3)nc(Nc3ccc(S(N)(=O)=O)cc3)c2C#N)cc1 ?
5.06

Which pKi value belongs to CC(C)c1nc(SCC(=O)c2ccccc2)nc(Nc2ccc(S(N)(=O)=O)cc2)c1C#N ?
7.02

Which pKi value belongs to Cc1ccc(-c2nc(SCC(=O)c3ccccc3)nc(Nc3ccc(S(N)(=O)=O)cc3)c2C#N)cc1 ?
8.13

Which pKi value belongs to COc1ccc(OC)c(-c2nc(SCC(=O)c3ccc(Br)cc3)nc(Nc3ccc(S(N)(=O)=O)cc3)c2C#N)c1 ?
7.06

Which pKi value belongs to NS(=O)(=O)c1ccc(Nc2cc(-c3ccccc3)nc(SCC(=O)c3ccccc3)n2)cc1 ?
7.07

Which pKi value belongs to COc1ccc(OC)c(-c2nc(SCC(=O)c3ccc(Br)cc3)nc(Nc3cccc(S(N)(=O)=O)c3)c2C#N)c1 ?
7.22

Which pKi value belongs to COc1ccc(C(=O)CSc2nc(Nc3ccc(S(N)(=O)=O)cc3)c(C#N)c(C(C)C)n2)cc1 ?
7.04

Which pKi value belongs to COc1ccc(C(=O)CSc2nc(Nc3cccc(S(N)(=O)=O)c3)c(C#N)c(-c3ccc(C)cc3)n2)cc1 ?
6.06

Which pKi value belongs to COc1ccc(OC)c(-c2nc(SCC(=O)c3ccccc3)nc(Nc3cccc(S(N)(=O)=O)c3)c2C#N)c1 ?
5.30

Which pKi value belongs to COc1ccc(OC)c(-c2nc(SCC(=O)c3ccccc3)nc(Nc3ccc(S(N)(=O)=O)cc3)c2C#N)c1 ?
7.06

----------
# System: MCF7
# assay_protocol: Antiproliferative activity against human MCF7 cells assessed as reduction in cell viability incubated for 24 hrs by sulforhodamine B assay
# Format: functional, cell-based
# condition: MCF7, 24 h
pIC50: −log10 of the molar value.
parameter: pIC50

Look up pIC50 with MCF7 for this molecule: Cc1ccc(-c2nc(SCC(=O)c3ccc(Br)cc3)nc(Nc3cccc(S(N)(=O)=O)c3)c2C#N)cc1
< 4.00

Look up pIC50 with MCF7 for this molecule: Cc1ccc(-c2nc(SCC(=O)c3ccccc3)nc(Nc3ccc(S(N)(=O)=O)cc3)c2C#N)cc1
< 4.00

Look up pIC50 with MCF7 for this molecule: COc1ccc(OC)c(-c2nc(SCC(=O)c3ccccc3)nc(Nc3ccc(S(N)(=O)=O)cc3)c2C#N)c1
< 4.00

----------
# Tested on: T47D
# assay_protocol: Antiproliferative activity against human T47D cells assessed as reduction in cell viability incubated for 24 hrs by sulforhodamine B assay
# Assay type: functional, cell-based
parameter: IC50 (µM)
Give the quantity in µM, number only.

Which IC50 value belongs to COc1ccc(OC)c(-c2nc(SCC(=O)c3ccc(Br)cc3)nc(Nc3ccc(S(N)(=O)=O)cc3)c2C#N)c1 ?
2.4

Which IC50 value belongs to Cc1ccc(-c2nc(SCC(=O)c3ccc(Br)cc3)nc(Nc3cccc(S(N)(=O)=O)c3)c2C#N)cc1 ?
60

Which IC50 value belongs to CC(C)c1nc(SCC(=O)c2ccccc2)nc(Nc2ccc(S(N)(=O)=O)cc2)c1C#N ?
46.4
